- target-or-test-system: Opioid receptors; mu & delta (Homo sapiens) (UniProt P41143+P35372)
- Sequence (P35372 whole entry, looked up): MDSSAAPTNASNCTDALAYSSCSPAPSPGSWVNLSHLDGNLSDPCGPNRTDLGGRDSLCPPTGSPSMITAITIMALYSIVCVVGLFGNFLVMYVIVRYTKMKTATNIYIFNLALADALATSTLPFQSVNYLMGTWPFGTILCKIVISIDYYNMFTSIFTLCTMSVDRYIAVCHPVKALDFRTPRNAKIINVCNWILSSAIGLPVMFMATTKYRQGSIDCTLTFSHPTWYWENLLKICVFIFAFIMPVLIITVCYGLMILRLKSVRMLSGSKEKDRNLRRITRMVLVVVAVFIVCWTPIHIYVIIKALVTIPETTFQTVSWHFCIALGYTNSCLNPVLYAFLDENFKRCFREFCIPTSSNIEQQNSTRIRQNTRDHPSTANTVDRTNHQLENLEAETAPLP
- Sequence (P41143 whole entry, looked up): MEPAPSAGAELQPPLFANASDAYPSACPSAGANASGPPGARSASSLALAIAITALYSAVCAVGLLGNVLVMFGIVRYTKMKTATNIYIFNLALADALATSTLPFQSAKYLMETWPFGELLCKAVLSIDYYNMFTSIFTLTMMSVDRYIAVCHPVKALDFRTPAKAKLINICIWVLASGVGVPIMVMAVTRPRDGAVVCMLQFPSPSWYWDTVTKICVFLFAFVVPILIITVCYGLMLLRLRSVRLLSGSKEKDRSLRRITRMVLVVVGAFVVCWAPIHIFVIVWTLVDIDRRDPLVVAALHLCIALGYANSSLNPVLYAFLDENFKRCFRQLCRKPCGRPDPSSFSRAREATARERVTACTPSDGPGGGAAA
- measurement-description: Selectivity ratio as ratio of Ki value towards mu receptor to that of delta-1 receptor.
- Format: protein assay
Entries annotated with measured Selectivity
readout: Selectivity

compound: Oc1ccc2c3c1O[C@H]1c4c(c5ccccc5n4Cc4ccccc4N=C=S)C[C@@]4(O)C(C2)N(CC2CC2)CCC314 (some centres undefined)
quantitative-result: 76
--
compound: Oc1ccc2c3c1O[C@H]1c4c(c5ccccc5n4Cc4cccc(N=C=S)c4)C[C@@]4(O)C(C2)N(CC2CC2)CCC314 (some centres undefined)
quantitative-result: 16
--
compound: Oc1ccc2c3c1O[C@H]1c4c(c5ccccc5n4Cc4ccc(N=C=S)cc4)C[C@@]4(O)C(C2)N(CC2CC2)CCC314 (some centres undefined)
quantitative-result: 55
--
compound: O=C(CBr)Nc1cccc(Cn2c3c(c4ccccc42)C[C@@]2(O)C4Cc5ccc(O)c6c5C2(CCN4CC2CC2)[C@H]3O6)c1 (some centres undefined)
quantitative-result: 805
